- measurement-protocol: Inhibition of quorum sensing system in Pseudomonas aeruginosa PAO1 assessed as decrease in pqsR expression by PCR analysis
value-type: IC50
Please state the number and follow it with the unit.

Q: Fill in: IC50 of `CCCCCCCc1[nH]c2ccc([N+](=O)[O-])cc2c(=O)c1C(N)=O` is ___
A: 2 µM

###

- target-or-test-system: UniProt Q8WVB3
- Sequence (Q8WVB3 whole entry): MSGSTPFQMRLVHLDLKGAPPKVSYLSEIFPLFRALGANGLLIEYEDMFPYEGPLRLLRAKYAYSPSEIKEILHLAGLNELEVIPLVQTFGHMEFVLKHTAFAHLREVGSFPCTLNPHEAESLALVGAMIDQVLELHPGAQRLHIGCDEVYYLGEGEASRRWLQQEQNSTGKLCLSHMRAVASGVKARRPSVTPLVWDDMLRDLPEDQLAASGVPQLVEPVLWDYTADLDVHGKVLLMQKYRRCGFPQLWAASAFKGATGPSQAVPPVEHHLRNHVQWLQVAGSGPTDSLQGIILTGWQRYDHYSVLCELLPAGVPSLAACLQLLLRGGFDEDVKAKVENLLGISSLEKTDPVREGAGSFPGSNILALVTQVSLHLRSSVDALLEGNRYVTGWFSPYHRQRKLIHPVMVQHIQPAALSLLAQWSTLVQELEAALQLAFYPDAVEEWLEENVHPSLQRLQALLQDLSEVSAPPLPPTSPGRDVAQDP
- measurement-protocol: Inhibition of human recombinant beta-hexosaminidase
value-type: IC50 (µM)
API: value field is a number in µM; no unit string.

Q: Fill in: IC50 of `C[C@@H](Oc1ccc(Cl)cc1Cl)C(=O)NCc1ccc2c(c1)OCO2` is ___
A: 12.5

###

- target-or-test-system: Acyl-homoserine lactone acylase PvdQ (Pseudomonas aeruginosa (strain LESB58), UniProt Q9I194)
- measurement-protocol: Inhibition of wild type Pseudomonas aeruginosa PAO1 pvdQ
value-type: IC50 (µM)
API: value field is a number in µM; no unit string.

Q: Fill in: IC50 of N#CC(c1ccc(F)cc1)c1cccc(C(F)(F)F)n1 (stereo unspecified) is ___
A: 19

###

- target-or-test-system: Acyl-homoserine lactone acylase PvdQ (Pseudomonas aeruginosa (strain LESB58), UniProt Q9I194)
- Sequence (Q9I194 whole entry): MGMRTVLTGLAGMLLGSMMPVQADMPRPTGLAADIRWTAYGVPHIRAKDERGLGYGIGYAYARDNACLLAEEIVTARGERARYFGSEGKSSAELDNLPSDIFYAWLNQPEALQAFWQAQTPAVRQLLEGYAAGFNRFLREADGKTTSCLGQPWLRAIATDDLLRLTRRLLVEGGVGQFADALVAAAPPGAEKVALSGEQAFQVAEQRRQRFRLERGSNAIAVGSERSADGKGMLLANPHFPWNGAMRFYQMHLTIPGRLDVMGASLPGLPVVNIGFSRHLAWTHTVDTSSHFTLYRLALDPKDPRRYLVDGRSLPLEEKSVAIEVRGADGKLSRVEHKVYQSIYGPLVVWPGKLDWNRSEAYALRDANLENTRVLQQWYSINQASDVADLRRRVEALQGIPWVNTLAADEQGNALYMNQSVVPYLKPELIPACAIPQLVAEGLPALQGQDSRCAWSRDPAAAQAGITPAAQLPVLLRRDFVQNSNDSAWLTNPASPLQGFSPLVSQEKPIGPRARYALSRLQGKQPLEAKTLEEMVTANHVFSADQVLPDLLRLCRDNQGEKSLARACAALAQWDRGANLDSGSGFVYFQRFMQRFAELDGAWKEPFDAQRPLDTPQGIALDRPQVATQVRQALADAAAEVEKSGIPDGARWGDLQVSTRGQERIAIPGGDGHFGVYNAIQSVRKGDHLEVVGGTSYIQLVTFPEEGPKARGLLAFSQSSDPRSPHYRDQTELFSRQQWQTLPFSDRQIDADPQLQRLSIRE
- measurement-protocol: Inhibition of Pseudomonas aeruginosa ATCC 15692 pvdQ incubated for 4 hrs
pIC50: −log10 of the molar value.
// reported pIC50 for each item listed

Q: Fill in: pIC50 of `C=CCNc1ncnc2ccc(Br)cc12` is ___
A: > 7.70

Q: Try `O=c1onc2n1-c1cc(Br)ccc1OC2` next.
A: > 7.70

###

// reported half-life for each item listed
- measurement-protocol: Half life in mouse
- Assay type: ADME, organism-based
- assay-conditions: in vivo
API: value field is a number in min; no unit string.

Look over these answered cases.
COc1ccc(/C=C/C(=O)NC[C@H]2O[C@H](OC)[C@@H](O)[C@@H](O)[C@@H]2O)cc1OC	5
CO[C@H]1O[C@H](CO)[C@@H](O)[C@H](O)[C@@H]1O	0.75
CO[C@H]1O[C@H](CNC(=O)/C=C/c2ccccc2)[C@@H](O)[C@H](O)[C@@H]1O	5

# next compound below
Q: Fill in: half-life of `CO[C@H]1O[C@H](CNS(=O)(=O)c2c(C)cc(C)cc2C)[C@@H](O)[C@H](O)[C@@H]1O` is ___
A: 5

###

- measurement-protocol: Inhibition of Pseudomonas aeruginosa FabI
value-type: pIC50
Interpret pIC50 as the negative base-10 log of the concentration measured in mol/L.

Q: Fill in: pIC50 of `Oc1cc(Cl)ccc1Oc1ccc(Cl)cc1Cl` is ___
A: 6.70

###

// reported log10(IC50) for each item listed
- measurement-protocol: Antagonist activity at Pseudomonas aeruginosa MvfR
Plainly stated, the numbers are log10 of IC50 given in nM.

Look over these answered cases.
CC(C)(C)c1ccc(C(=O)NO)cc1	1.94
O=C(CSc1nc2cc([N+](=O)[O-])ccc2[nH]1)Nc1ccc(Oc2ccccc2)cc1	2.48
CCCCCCCc1[nH]c2ccc([N+](=O)[O-])cc2c(=O)c1C(N)=O	0.30
Nc1nnc(-c2cccc(C(F)(F)F)c2)o1	2.40

# next compound below
Q: Fill in: log10(IC50) of `CCCCCCCCCc1nc2cc(Cl)ccc2c(=O)n1N` is ___
A: 1.70

###

- target-or-test-system: PA-I galactophilic lectin (Pseudomonas aeruginosa (strain ATCC 15692 / PAO1 / 1C / PRS 101 / LMG12228))
- Sequence (Q05097 whole entry): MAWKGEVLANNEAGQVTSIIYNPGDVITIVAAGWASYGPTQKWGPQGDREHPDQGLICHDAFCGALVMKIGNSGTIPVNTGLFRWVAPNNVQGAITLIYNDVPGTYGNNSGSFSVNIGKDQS
- measurement-protocol: Binding affinity to Pseudomonas aeruginosa PAO1 LecA assessed as dissociation constant
// reported pKd for each item listed
Interpret pKd as the negative base-10 log of the concentration measured in mol/L.

Look over these answered cases.
OC[C@H]1O[C@@H](Sc2ccc3ccccc3c2)[C@H](O)[C@@H](O)[C@H]1O	5.20
COC(=O)c1cn([C@@H]2O[C@H](CO)[C@@H](O[C@@H]3O[C@@H](C)[C@@H](O)[C@@H](O)[C@@H]3O)[C@H](O)[C@H]2NC(C)=O)nn1	6.54
CO[C@H]1O[C@H](CNS(=O)(=O)c2c(C)cc(C)cc2C)[C@@H](O)[C@H](O)[C@@H]1O	5.48
COc1ccc(/C=C/C(=O)NC[C@H]2O[C@H](OC)[C@@H](O)[C@@H](O)[C@@H]2O)cc1OC	4.96
C[C@@H]1O[C@H](C)[C@@H](O)[C@H](O)[C@@H]1O	4.77
CC(=O)N[C@H]1C(O)O[C@H](CO)[C@@H](O[C@@H]2O[C@@H](C)[C@@H](O)[C@@H](O)[C@@H]2O)[C@@H]1O[C@@H]1O[C@H](CO)[C@H](O)[C@H](O)[C@H]1O (some centres undefined)	6.67

Q: Fill in: pKd of `C[C@@H]1O[C@H](CO)[C@@H](O)[C@H](O)[C@@H]1O` is ___
A: 4.80

Q: Try `CO[C@H]1O[C@H]([C@@H](O)CNS(=O)(=O)c2c(C)cc(C)cc2C)[C@@H](O)[C@H](O)[C@@H]1O` next.
A: 7.00

Q: Try `N=C(N)NCCC[C@H](NC(=O)COCCOCCNC(=O)[C@H](CCCCNC(=O)[C@@H]1C[C@H](NC(=O)[C@H](Cc2cn(CCNC(=O)c3ccc(S[C@@H]4O[C@H](CO)[C@H](O)[C@H](O)[C@H]4O)cc3)nn2)NC(=O)COc2ccccc2)CN1)NC(=O)[C@@H]1C[C@H](NC(=O)[C@H](Cc2cn(CCNC(=O)c3ccc(S[C@@H]4O[C@H](CO)[C@H](O)[C@H](O)[C@H]4O)cc3)nn2)NC(=O)COc2ccccc2)CN1)C(N)=O` next.
A: 7.09

###

// reported Ki for each item listed
- target-or-test-system: Elastase (Pseudomonas aeruginosa (strain ATCC 15692 / PAO1 / 1C / PRS 101 / LMG12228), UniProt P14756)
- Sequence (P14756 whole entry): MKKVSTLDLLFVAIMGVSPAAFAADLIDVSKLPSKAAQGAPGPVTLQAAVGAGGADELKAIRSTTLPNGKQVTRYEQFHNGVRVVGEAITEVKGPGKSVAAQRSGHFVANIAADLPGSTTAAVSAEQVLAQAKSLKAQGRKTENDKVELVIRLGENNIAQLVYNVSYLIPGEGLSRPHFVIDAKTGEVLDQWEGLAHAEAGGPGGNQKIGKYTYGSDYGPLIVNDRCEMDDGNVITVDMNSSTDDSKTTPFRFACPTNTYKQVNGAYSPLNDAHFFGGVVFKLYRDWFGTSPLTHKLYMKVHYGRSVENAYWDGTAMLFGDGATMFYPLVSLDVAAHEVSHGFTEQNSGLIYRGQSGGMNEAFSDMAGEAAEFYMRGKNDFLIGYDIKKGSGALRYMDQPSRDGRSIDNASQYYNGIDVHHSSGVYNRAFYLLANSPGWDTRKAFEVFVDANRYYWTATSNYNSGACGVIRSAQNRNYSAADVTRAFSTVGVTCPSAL
- measurement-protocol: Inhibition of Pseudomonas aeruginosa LasB elastase using aminobenzoyl-Ala-Gly-Leu-Ala-p-nitro-benzyl-amide as substrate b microtiter-based fluorimetric assay
API: value field is a number in nM; no unit string.

NC(=O)[C@H](Cc1ccc(O)cc1)NC(=O)[C@H](Cc1ccccc1)NC(=O)CS	41

# next molecule below
Q: Fill in: Ki of `CC(C)C[C@H](NP(=O)(O)O[C@@H]1O[C@@H](C)[C@H](O)[C@@H](O)[C@H]1O)C(=O)N[C@@H](Cc1c[nH]c2ccccc12)C(=O)O` is ___
A: 57

###

- measurement-protocol: Inhibition of elastase (unknown origin)
- Parameters: species or system Homo sapiens
value-type: pIC50
Interpret pIC50 as the negative base-10 log of the concentration measured in mol/L.

Q: Fill in: pIC50 of `COc1cc(/C=C2\S/C(=N\c3ccccc3)N(c3ccccc3)C2=O)cc(OC)c1O` is ___
A: 3.42

###

// reported MIC for each item listed
- System: Pseudomonas aeruginosa
- measurement-protocol: Antimicrobial activity against Pseudomonas aeruginosa assessed as reduction in bacterial growth
- Assay type: functional, organism-based
API: value field is a number in µg/mL; no unit string.

Look over these answered cases.
COc1c(NC(=O)c2ccc(NC(=O)c3ccc(NC(=O)[C@H](CC#N)NC(=O)c4ccc(NC(=O)/C(C)=C/c5ccc(O)cc5)cc4)cc3)c(OC)c2O)ccc(C(=O)O)c1O	1
CO[C@H](C(N)=O)[C@H](NC(=O)c1ccc(NC(=O)c2ccc([N+](=O)[O-])cc2)cc1)C(=O)Nc1ccc(C(=O)Nc2ccc(C(=O)Nc3ccc(C(=O)O)cc3OC(C)C)c(O)c2OC(C)C)cc1	1

# next molecule below
Q: Fill in: MIC of `Cc1ccc2c(C)c3c(c(O)c2c1O)C(=O)[C@]1(O)C(=O)C(C(N)=O)=C(O)[C@H](N)[C@@H]1C3` is ___
A: 32

Where do these numbers come from? They come from ChEMBL document CHEMBL5257018.
